testDescription: acute oral semilethal dose (LD50) in mice
studyConditions: mouse, in vivo
Source text: Thus, DTPA is a safe oral drug, representing a preferred iron chelator for the compositions of the present invention. It is therefore a further preferred iron chelator for the compositions of the invention.

compound: O=C(O)CN(CCN(CC(=O)O)CC(=O)O)CCN(CC(=O)O)C(COCc1ccccc1)C(=O)O (stereo not shown) [BOPTA]
unitString: µmol/kg
LD50: 8400
